pIC50 values recorded for UniProt Q00535
To interpret pIC50, take it as minus log10 of a concentration measured in moles per litre.

CCCn1cnc2c(NCc3ccc(C)s3)nc(N[C@H](CC)CO)nc21 [Compound 13x]    5.52

Challenge: Hi! What's the reported pIC50 for CC[C@H](CO)Nc1nc(NCc2ccc(C)s2)c2ncn(C)c2n1 [Compound 13w] on UniProt Q00535?
Response given: 5.55

---

# Assayed System: N-type Ca^2+ channel (Cav2.2) (Rattus norvegicus, UniProt Q02294)
# Construct: expressed in transfected cells; later also transient transfection
# Sequence (Q02294 whole entry): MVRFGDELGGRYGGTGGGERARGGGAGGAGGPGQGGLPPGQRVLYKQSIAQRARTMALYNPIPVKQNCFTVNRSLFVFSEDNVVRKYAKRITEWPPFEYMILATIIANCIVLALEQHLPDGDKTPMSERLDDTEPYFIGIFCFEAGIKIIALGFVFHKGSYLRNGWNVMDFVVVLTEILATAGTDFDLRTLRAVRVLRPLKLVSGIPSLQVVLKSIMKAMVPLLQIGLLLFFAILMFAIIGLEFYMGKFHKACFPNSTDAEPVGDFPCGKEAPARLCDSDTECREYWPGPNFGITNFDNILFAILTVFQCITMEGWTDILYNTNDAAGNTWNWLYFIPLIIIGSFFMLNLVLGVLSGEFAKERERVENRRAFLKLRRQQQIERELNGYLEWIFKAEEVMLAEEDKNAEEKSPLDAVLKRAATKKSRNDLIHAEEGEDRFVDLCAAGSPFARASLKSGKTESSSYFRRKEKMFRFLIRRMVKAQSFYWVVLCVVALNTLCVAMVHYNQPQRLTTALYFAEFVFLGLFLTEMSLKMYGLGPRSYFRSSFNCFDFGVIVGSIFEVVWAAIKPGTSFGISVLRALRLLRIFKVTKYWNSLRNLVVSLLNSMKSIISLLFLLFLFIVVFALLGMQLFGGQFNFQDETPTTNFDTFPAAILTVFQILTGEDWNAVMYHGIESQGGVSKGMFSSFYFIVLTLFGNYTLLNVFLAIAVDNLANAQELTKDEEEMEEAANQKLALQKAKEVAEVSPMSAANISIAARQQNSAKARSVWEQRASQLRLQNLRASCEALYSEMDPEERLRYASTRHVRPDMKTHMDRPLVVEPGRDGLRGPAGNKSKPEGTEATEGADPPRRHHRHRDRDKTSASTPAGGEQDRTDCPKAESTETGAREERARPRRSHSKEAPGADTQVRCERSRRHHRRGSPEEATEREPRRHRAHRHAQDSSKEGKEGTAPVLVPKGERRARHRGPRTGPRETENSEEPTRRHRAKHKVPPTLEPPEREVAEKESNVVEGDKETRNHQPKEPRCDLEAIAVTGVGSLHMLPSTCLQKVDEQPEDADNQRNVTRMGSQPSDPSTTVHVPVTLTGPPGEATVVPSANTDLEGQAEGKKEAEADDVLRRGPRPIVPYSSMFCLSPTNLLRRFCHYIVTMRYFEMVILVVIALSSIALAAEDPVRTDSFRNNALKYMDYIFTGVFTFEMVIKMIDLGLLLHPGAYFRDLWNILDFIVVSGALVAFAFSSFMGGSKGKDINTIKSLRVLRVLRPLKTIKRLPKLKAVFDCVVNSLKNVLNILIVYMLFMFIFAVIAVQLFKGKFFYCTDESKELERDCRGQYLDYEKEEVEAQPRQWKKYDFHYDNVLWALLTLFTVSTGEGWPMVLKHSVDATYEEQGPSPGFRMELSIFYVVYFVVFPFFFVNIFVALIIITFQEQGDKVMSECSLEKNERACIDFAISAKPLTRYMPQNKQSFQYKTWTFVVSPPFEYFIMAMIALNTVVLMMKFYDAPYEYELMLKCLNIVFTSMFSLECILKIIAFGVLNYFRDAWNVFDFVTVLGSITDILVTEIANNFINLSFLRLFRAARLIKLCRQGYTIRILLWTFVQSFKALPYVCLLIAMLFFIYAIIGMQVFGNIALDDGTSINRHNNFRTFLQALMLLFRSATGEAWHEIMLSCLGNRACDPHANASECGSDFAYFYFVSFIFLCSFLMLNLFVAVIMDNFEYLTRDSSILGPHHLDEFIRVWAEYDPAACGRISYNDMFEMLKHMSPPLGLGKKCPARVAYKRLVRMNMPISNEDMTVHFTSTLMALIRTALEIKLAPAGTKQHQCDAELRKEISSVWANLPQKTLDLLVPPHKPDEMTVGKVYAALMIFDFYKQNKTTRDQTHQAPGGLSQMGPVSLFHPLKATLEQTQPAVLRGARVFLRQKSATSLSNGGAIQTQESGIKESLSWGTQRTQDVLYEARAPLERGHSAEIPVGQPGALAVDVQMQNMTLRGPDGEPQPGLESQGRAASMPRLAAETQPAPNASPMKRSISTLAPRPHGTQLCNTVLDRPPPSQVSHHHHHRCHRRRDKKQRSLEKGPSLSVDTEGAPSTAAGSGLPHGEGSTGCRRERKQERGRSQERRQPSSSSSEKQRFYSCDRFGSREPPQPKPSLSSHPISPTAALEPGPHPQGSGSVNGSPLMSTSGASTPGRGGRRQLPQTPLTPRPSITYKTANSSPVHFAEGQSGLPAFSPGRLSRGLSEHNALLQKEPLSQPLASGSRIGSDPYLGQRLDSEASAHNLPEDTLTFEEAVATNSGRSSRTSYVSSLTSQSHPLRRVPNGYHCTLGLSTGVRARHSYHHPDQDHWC
# Protocol Description: N-type Ca2+ channel agonist activity, whole-cell perforated patch clamp of tail currents in tsA201 cells
# Format: cell-based
# Measurement Setup: N-type
Experimental Readout: agonist effect on the Ca^2+ channel tail currents (in words)

CC[C@H](CO)Nc1nc(NCc2ccc(C)s2)c2ncn(C(C)C)c2n1 [Compound 13u]    strong agonist effect
CC[C@H](CO)Nc1nc(NCc2ccc(C)s2)c2ncn(C)c2n1 [Compound 13w]    strong agonist effect
CCCn1cnc2c(NCc3ccc(C)s3)nc(N[C@H](CC)CO)nc21 [Compound 13x]    strong agonist effect

---

# Protocol Description: Solubility in saline with 1% DMSO
# Assay type: physicochemical
# Measurement Setup: saline or isotonic, kinetic from dmso stock
Experimental Readout: solubility

Challenge: Looking for the measured solubility of CC[C@H](CO)Nc1nc(NCc2ccccc2)c2ncn(C)c2n1 [Compound 13k] , can you help?
Response given: ≤ 200 µM

---

# Assayed System: mitogen-activated protein kinase (MAPK1(h)) (Homo sapiens)
# Sequence (P27361 whole entry): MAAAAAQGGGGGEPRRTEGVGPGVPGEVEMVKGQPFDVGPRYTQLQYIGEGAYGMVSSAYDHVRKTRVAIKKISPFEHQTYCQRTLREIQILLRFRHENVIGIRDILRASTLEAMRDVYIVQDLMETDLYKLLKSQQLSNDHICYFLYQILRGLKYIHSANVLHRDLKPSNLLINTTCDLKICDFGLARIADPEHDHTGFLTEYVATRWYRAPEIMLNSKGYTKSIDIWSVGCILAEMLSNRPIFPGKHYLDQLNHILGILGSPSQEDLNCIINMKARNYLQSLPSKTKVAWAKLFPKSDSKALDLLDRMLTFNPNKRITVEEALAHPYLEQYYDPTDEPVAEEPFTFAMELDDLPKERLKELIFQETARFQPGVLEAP
# Protocol Description: Kinase inhibitory activity (EMD Millipore KinaseProfiler), MAPK1
# Measurement Setup: 20 μM highest concentration used; read-out: MAPK EC50/IC50 affinities
pIC50: −log10 of the molar value.
pIC50 for assorted molecules

Solved cases (2 shown):
CC[C@H](CO)Nc1nc(NCc2ccc(C)s2)c2ncn(C)c2n1 [Compound 13w]    < 4.70
CC[C@H](CO)Nc1nc(NCc2ccc(C)s2)c2ncn(C(C)C)c2n1 [Compound 13u]    < 4.70

Now look at this one.
Challenge: Hi! What's the reported pIC50 for CCCn1cnc2c(NCc3ccc(C)s3)nc(N[C@H](CC)CO)nc21 [Compound 13x] on mitogen-activated protein kinase (MAPK1(h)) (Homo sapiens)?
Response given: < 4.70

---

IC50 values recorded for Cdk1 cyclinB(h) (Homo sapiens, UniProt P06493)
Respond with the figure and its unit, in that order.

CCCn1cnc2c(NCc3ccc(C)s3)nc(N[C@H](CC)CO)nc21 [Compound 13x]    20.6 µM

Now look at this one.
Challenge: Looking for the measured IC50 of CC[C@H](CO)Nc1nc(NCc2ccc(C)s2)c2ncn(C)c2n1 [Compound 13w] , can you help?
Response given: 10.5 µM

---

# Assayed System: N-type Ca^2+ channel (Cav2.2) (Rattus norvegicus)
# Construct: expressed in transfected cells; later also transient transfection
# Protocol Description: N-type Ca2+ channel agonist activity, whole-cell perforated patch clamp of tail currents in tsA201 cells
# Type: cell-based
# Measurement Setup: Table 3, calcium channel agonist; read-out: N-type EC50/IC50 affinities
# Description: tsA201 cells expressing calcium channels. […] Whole-cell patch clamp recordings of calcium current. […] To measure effects on calcium channel tail currents, the tail current integral was measured before and after application of a derivative, with the integral of each trace being normalized to its peak. […] Statistical Analysis. […] All EC50 and IC50 values and their respective errors were determined by performing 100 iterations of a logistic function curve fit. […]
Experimental Readout: pEC50
To interpret pEC50, take it as minus log10 of a concentration measured in moles per litre.

Solved cases (2 shown):
CC[C@H](CO)Nc1nc(NCc2ccc(C)s2)c2ncn(C)c2n1 [Compound 13w]    4.52
CC[C@H](CO)Nc1nc(NCc2ccc(C)s2)c2ncn(C(C)C)c2n1 [Compound 13u]    4.95

Challenge: Looking for the measured pEC50 of CCCn1cnc2c(NCc3ccc(C)s3)nc(N[C@H](CC)CO)nc21 [Compound 13x] , can you help?
Response given: 5.14

---

# Assayed System: P/Q-type channels (Cav 2.1) (Rattus norvegicus)
# Construct: host or cells: tsA-201
# Protocol Description: P/Q-type Ca2+ channel agonist activity, whole-cell perforated patch clamp in tsA-201 cells
# Type: cell-based
# Measurement Setup: read-out: 95% confidence interval for a fit (EC50) to P/Q channels data
pEC50: −log10 of the molar value.
Experimental Readout: pEC50

Challenge: Looking for the measured pEC50 of CCCn1cnc2c(NCc3ccc(C)s3)nc(N[C@H](CC)CO)nc21 [Compound 13x] , can you help?
Response given: 4.84 to 5.17

---

pIC50: −log10 of the molar value.
pIC50 values recorded for myosin light-chain kinase (MLCK(h)) (Homo sapiens, UniProt Q9H1R3)

Solved cases (2 shown):
CC[C@H](CO)Nc1nc(NCc2ccc(C)s2)c2ncn(C)c2n1 [Compound 13w]    < 4.70
CCCn1cnc2c(NCc3ccc(C)s3)nc(N[C@H](CC)CO)nc21 [Compound 13x]    < 4.70

Now look at this one.
Challenge: Hi! What's the reported pIC50 for CC[C@H](CO)Nc1nc(NCc2ccc(C)s2)c2ncn(C(C)C)c2n1 [Compound 13u] on myosin light-chain kinase (MLCK(h)) (Homo sapiens, UniProt Q9H1R3)?
Response given: 4.71

---

# Assayed System: L-type (Cav 1.3) channels (Rattus norvegicus, UniProt P27732)
# Construct: host or cells: tsA-201
# Sequence (P27732 whole entry): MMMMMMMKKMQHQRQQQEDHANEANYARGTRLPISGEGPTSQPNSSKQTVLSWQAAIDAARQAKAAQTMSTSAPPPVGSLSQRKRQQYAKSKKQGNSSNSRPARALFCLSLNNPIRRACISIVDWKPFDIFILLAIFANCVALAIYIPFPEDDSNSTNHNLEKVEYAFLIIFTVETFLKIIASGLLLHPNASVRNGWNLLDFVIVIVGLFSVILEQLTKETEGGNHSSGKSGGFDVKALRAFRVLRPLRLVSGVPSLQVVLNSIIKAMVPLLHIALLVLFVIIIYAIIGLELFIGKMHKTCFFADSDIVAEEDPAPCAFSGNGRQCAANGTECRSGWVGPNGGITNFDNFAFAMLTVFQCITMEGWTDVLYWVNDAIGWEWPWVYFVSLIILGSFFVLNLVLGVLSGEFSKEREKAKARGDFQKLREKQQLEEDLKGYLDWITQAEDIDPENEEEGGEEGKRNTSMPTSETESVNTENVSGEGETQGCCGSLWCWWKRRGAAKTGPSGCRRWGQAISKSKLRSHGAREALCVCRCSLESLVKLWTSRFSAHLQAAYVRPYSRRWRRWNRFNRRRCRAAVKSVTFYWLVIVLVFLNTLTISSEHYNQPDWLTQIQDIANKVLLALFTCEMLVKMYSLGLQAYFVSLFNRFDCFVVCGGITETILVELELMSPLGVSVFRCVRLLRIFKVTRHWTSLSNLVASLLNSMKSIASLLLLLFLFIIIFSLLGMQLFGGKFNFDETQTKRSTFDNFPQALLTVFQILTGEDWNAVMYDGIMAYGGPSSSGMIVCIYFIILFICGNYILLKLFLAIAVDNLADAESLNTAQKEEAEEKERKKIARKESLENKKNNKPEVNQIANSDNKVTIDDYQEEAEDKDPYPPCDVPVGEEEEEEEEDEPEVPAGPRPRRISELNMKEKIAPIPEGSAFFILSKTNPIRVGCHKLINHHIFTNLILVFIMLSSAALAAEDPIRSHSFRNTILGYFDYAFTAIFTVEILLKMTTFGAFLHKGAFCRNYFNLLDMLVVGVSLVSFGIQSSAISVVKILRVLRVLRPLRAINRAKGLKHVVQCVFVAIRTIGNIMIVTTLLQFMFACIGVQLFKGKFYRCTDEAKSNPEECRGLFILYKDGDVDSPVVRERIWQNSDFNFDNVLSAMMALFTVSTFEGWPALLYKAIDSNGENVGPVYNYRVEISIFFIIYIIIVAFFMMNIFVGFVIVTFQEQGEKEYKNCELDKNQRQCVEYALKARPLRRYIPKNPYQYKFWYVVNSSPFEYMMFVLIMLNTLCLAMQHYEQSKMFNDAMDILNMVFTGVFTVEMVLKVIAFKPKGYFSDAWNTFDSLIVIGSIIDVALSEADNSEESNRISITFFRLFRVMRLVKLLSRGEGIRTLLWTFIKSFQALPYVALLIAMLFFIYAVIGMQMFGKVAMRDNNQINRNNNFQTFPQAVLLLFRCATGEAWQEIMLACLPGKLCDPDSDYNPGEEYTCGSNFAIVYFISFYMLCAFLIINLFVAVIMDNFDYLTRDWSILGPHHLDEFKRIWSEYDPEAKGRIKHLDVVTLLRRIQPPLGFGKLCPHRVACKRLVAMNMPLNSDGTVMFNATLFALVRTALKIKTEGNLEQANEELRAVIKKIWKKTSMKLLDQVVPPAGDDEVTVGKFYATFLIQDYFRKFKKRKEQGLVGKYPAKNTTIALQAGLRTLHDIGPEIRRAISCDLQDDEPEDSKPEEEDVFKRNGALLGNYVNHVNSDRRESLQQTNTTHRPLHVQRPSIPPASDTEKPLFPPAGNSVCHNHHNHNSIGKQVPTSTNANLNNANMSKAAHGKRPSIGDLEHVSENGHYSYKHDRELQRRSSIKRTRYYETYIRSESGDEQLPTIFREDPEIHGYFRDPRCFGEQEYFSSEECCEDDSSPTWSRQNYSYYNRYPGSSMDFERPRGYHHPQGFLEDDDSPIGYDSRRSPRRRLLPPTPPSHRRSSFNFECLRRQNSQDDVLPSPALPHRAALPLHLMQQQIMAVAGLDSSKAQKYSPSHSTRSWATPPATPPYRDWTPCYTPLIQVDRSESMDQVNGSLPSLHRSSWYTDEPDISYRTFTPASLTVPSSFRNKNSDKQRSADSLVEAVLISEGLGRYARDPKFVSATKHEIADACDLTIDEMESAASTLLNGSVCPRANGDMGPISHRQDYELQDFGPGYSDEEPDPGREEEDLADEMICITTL
# Protocol Description: L-type Ca2+ channel agonist activity, whole-cell perforated patch clamp in tsA-201 cells
# Assay type: cell-based
# Measurement Setup: Cav 1.3; no measureable agonist effect up to 100 μM; read-out: L-type EC50/IC50 affinities
pEC50: −log10 of the molar value.
Experimental Readout: pEC50

Challenge: Looking for the measured pEC50 of CCCn1cnc2c(NCc3ccc(C)s3)nc(N[C@H](CC)CO)nc21 [Compound 13x] , can you help?
Response given: < 4.00

---

pIC50 values recorded for cdk2 cyclinA(h) (Homo sapiens)
To interpret pIC50, take it as minus log10 of a concentration measured in moles per litre.

CC[C@H](CO)Nc1nc(NCc2ccc(C)s2)c2ncn(C)c2n1 [Compound 13w]    5.52

Challenge: Looking for the measured pIC50 of CCCn1cnc2c(NCc3ccc(C)s3)nc(N[C@H](CC)CO)nc21 [Compound 13x] , can you help?
Response given: 5.48

---

# Assayed System: N-type Ca^2+ channel (Cav2.2) (Rattus norvegicus, UniProt Q02294)
# Construct: expressed in transfected cells; later also transient transfection
# Protocol Description: N-type Ca2+ channel agonist activity, whole-cell perforated patch clamp of tail currents in tsA201 cells
# Type: cell-based
# Measurement Setup: whole cell perforated patch clamp, deactivation (tail) currents from N-type channels; read-out: N-Type Ca^2+ Channel Activity EC50 +/− SEM
Experimental Readout: EC50

CC[C@H](CO)Nc1nc(NCCc2ccccc2)c2ncn(C(C)C)c2n1 [Compound 13q]    > 100 µM
CC[C@H](CO)Nc1nc(NCc2ccc(-c3ccccc3)cc2)c2ncn(C(C)C)c2n1 [Compound 13s]    > 100 µM
CC[C@H](CO)Nc1nc(NCc2ccccc2)c2ncn(C)c2n1 [Compound 13k]    > 70 µM

Challenge: Looking for the measured EC50 of CC[C@H](CO)Nc1nc(NCc2ccc(C)s2)c2ncn(C(C)C)c2n1 [Compound 13u] , can you help?
Response given: 11.3 µM

Challenge: Looking for the measured EC50 of CC[C@H](CO)Nc1nc(NCc2ccc(-c3ccccc3)cc2)c2ncn(C)c2n1 [Compound 13h] , can you help?
Response given: > 100 µM

Challenge: Looking for the measured EC50 of CCCn1cnc2c(NCc3ccc(-c4ccccc4)cc3)nc(N[C@H](CC)CO)nc21 [Compound 13a] , can you help?
Response given: > 100 µM

Challenge: Looking for the measured EC50 of CCCn1cnc2c(NCc3cccnc3)nc(N[C@H](CC)CO)nc21 [Compound 13f] , can you help?
Response given: > 100 µM

Challenge: Looking for the measured EC50 of CC[C@H](CO)Nc1nc(NCc2ccc(C)s2)c2ncn(C)c2n1 [Compound 13w] , can you help?
Response given: 30 µM

Challenge: Looking for the measured EC50 of CC[C@H](CO)Nc1nc(NCC2CC2)c2ncn(C(C)C)c2n1 [Compound 13p] , can you help?
Response given: > 100 µM

Challenge: Looking for the measured EC50 of CCCn1cnc2c(Nc3ccccc3)nc(N[C@H](CC)CO)nc21 [Compound 13e] , can you help?
Response given: > 100 µM

Challenge: Looking for the measured EC50 of CC[C@H](CO)Nc1nc(NCc2cccnc2)c2ncn(C(C)C)c2n1 [Compound 13r] , can you help?
Response given: > 100 µM

Challenge: Looking for the measured EC50 of CC[C@H](CO)Nc1nc(NCc2cccnc2)c2ncn(C)c2n1 [Compound 13n] , can you help?
Response given: > 100 µM

Challenge: Looking for the measured EC50 of CC[C@H](CO)Nc1nc(NCc2cccc(C(F)(F)F)c2)c2ncn(C(C)C)c2n1 [Compound 13v] , can you help?
Response given: > 100 µM

Challenge: Looking for the measured EC50 of CCCn1cnc2c(NCC3CC3)nc(N[C@H](CC)CO)nc21 [Compound 13g] , can you help?
Response given: > 100 µM

Challenge: Looking for the measured EC50 of CC[C@H](CO)Nc1nc(NC(c2ccccc2)c2ccccc2)c2ncn(C(C)C)c2n1 [Compound 13t] , can you help?
Response given: > 100 µM

Challenge: Looking for the measured EC50 of CCCn1cnc2c(NCc3ccccc3)nc(N[C@H](CC)CO)nc21 [Compound 13d] , can you help?
Response given: 14.2 µM

Challenge: Looking for the measured EC50 of CC[C@H](CO)Nc1nc(NCCc2ccccc2)c2ncn(C)c2n1 [Compound 13j] , can you help?
Response given: > 100 µM
